Cited source: patent US20140187559A1

pIC50 tested on wild type FGFR-4 (Homo sapiens, UniProt P22455): recorded values
Sequence (P22455 22-802): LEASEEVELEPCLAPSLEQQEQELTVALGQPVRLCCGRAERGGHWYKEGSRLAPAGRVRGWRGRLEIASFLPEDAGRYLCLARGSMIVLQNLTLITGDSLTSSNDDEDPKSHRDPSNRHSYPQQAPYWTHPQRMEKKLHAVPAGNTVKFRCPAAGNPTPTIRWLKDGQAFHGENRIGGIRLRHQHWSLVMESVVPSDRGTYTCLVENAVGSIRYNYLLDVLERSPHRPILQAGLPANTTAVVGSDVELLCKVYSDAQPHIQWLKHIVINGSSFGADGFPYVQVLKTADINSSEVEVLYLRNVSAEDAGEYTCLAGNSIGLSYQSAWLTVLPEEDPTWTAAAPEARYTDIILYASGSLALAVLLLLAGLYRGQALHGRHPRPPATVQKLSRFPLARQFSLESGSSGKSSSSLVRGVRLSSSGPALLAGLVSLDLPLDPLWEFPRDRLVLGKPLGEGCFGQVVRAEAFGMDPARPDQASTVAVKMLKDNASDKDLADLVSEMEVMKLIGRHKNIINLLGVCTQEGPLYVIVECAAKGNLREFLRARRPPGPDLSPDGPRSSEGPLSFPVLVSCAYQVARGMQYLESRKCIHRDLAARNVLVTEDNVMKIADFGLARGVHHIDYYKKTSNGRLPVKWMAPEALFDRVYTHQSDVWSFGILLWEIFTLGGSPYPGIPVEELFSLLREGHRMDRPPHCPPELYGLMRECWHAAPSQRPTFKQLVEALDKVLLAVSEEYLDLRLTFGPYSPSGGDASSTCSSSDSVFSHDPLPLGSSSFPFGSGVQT
pIC50: −log10 of the molar value.

- molecule: "C=CS(=O)(=O)Nc1cccc(C)c1Nc1ncc2cc(-c3c(Cl)c(OC)cc(OC)c3Cl)ccc2n1 [COMPOUND 49A]"
  pIC50: "7.00 to 8.00"
- molecule: "C=CC(=O)Nc1cccc(C)c1Oc1ncc2cc(-c3c(Cl)c(OC)cc(OC)c3Cl)ccc2n1 [COMPOUND 25A]"
  pIC50: "6.00 to 7.00"
- molecule: "C=CC(=O)Nc1ccccc1Nc1ncc(Cl)c(N2CCN(C(=O)Nc3cccc(C(F)(F)F)c3)CC2)n1 [COMPOUND 50]"
  pIC50: "6.00 to 7.00"
- molecule: "C=CC(=O)Nc1ccccc1Nc1nccc(N2CCCC(NS(=O)(=O)CCC)C2)n1 (centres unmarked) [COMPOUND 11]"
  pIC50: "6.00 to 7.00"
- molecule: "C#CC(=O)NCc1cccn2c(-c3cc(NC(=O)NCC(F)(F)F)cc(OC(C)C)c3)cnc12 [COMPOUND 20]"
  pIC50: "7.00 to 8.00"
- molecule: "C=CC(=O)Nc1ccccc1Nc1nccc(N2CCN(C(=O)Nc3ccc(C#N)cc3)CC2)n1 [COMPOUND 23]"
  pIC50: "6.00 to 7.00"
- molecule: "C=CC(=O)N(C)c1ncc2c(n1)N(C)C(=O)N(c1cc(OC)cc(OC)c1)C2 [COMPOUND 5]"
  pIC50: "7.00 to 8.00"
- molecule: "C=CC(=O)Nc1cccc(Cl)c1Nc1ncc2cc(-c3cc(C(N)=O)ccc3C)ccc2n1 [COMPOUND 17]"
  pIC50: "7.00 to 8.00"

----------
pIC50 tested on wild type FGFR-1 (Homo sapiens, UniProt P11362): recorded values
Sequence (P11362 22-822): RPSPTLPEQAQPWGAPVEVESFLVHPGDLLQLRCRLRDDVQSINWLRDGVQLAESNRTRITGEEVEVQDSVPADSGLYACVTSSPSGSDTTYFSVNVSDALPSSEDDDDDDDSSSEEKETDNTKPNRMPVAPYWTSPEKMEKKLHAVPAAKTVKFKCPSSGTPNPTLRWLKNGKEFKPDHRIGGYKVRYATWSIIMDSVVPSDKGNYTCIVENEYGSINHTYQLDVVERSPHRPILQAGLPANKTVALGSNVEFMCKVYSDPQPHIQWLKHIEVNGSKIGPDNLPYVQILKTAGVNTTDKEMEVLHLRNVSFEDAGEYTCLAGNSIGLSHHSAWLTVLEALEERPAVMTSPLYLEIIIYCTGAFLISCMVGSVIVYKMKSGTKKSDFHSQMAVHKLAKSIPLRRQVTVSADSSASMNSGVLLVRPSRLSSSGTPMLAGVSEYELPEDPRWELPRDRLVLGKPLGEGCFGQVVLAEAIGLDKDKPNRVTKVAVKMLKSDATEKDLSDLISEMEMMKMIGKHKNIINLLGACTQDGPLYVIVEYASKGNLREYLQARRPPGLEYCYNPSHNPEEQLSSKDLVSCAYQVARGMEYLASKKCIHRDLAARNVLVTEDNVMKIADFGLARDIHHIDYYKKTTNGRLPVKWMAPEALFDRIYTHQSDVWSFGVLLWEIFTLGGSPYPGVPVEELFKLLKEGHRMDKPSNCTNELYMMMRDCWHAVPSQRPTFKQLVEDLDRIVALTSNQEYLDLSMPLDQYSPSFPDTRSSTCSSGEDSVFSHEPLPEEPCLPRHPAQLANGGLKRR
pIC50: −log10 of the molar value.
quantity: pIC50

- compound: "C=CC(=O)N(C)c1ncc2cc(-c3cc(OC)cc(OC)c3)c(=O)n(C)c2n1"
  result: "< 6.00"
- compound: "C=CC(=O)N(CCCCN(CC)CC)c1ncc2cc(-c3c(Cl)c(OC)cc(OC)c3Cl)c(NC(=O)NC(C)(C)C)nc2n1"
  result: "7.00 to 8.00"
- compound: "C=CC(=O)Nc1cccc(F)c1Nc1ncc2cc(-c3c(Cl)c(OC)cc(OC)c3Cl)cc(OC)c2n1"
  result: "7.00 to 8.00"
- compound: "C=CC(=O)Nc1ccccc1Nc1nccc(N2CCN(C(=O)Nc3ccc(C#N)cc3)CC2)n1"
  result: "< 6.00"
- compound: "C=CC(=O)Nc1cccc(F)c1Nc1ncc2cc(-c3c(Cl)c(OC)cc(OC)c3Cl)ccc2n1"
  result: "7.00 to 8.00"
- compound: "C=CC(=O)Nc1ccccc1-c1ccn2c(-c3cc(NC(=O)NCC(F)(F)F)cc(OC(C)C)c3)cnc2c1"
  result: "< 6.00"
- compound: "C=CC(=O)Nc1cccc(C)c1Nc1ncc2cc(-c3c(Cl)c(OC)cc(OC)c3Cl)c(OC)cc2n1"
  result: "7.00 to 8.00"
- compound: "C=CC(=O)N(CCCCN(CC)CC)c1ncc2cc(-c3cc(OC)cc(OC)c3)c(NC(=O)NC(C)(C)C)nc2n1"
  result: "7.00 to 8.00"
- compound: "C=CC(=O)Nc1cccc(C)c1Nc1ncc2cc(-c3c(Cl)c(OC)cc(OC)c3Cl)c(=O)n(C)c2n1"
  result: "6.00 to 7.00"
- compound: "C=CC(=O)Nc1cccc(C)c1Nc1ncc2c(n1)N(C)C(=O)N(c1c(Cl)c(OC)cc(OC)c1Cl)C2"
  result: "6.00 to 7.00"
- compound: "C=CC(=O)Nc1cccc(OC)c1Nc1ncc2cc(-c3c(Cl)c(OC)cc(OC)c3Cl)ccc2n1"
  result: "6.00 to 7.00"
- compound: "C=CC(=O)N(C)c1ncc2c(n1)N(C)C(=O)N(c1c(Cl)c(OC)cc(OC)c1Cl)C2"
  result: "6.00 to 7.00"
- compound: "C=CS(=O)(=O)Nc1cccc(C)c1Nc1ncc2cc(-c3c(Cl)c(OC)cc(OC)c3Cl)ccc2n1 [COMPOUND 49A]"
  result: "6.00 to 7.00"
- compound: "C=CC(=O)N(C)c1ncc2cc(-c3c(Cl)c(OC)cc(OC)c3Cl)c(=O)n(C)c2n1"
  result: "7.00 to 8.00"
- compound: "C=CC(=O)N(C)c1ncc2nc(-c3cc(OC)cc(OC)c3)c(=O)n(C)c2n1"
  result: "< 6.00"
